settings: 323.15 K; 2500 kPa; Liquid; Vibrating tube method
mass density values for the compounds below.
Measured Endpoint: mass density (kg/m3)

[
  {
    "Compound": "CNC=O [N-methylformamide]",
    "Measured Endpoint": "mass density",
    "Reported": 979
  },
  {
    "Compound": "CN(C)C=O [dimethylformamide]",
    "Measured Endpoint": "mass density",
    "Reported": 922
  },
  {
    "Compound": "CC(=O)N(C)C [N,N-dimethylethanamide]",
    "Measured Endpoint": "mass density",
    "Reported": 915
  },
  {
    "Compound": "NCCN [ethane-1,2-diamine]",
    "Measured Endpoint": "mass density",
    "Reported": 870
  }
]

====

settings: 353.15 K; 2500 kPa; Liquid; Vibrating tube method
Measured Endpoint: mass density (kg/m3)

[
  {
    "Compound": "CC(=O)N(C)C [N,N-dimethylethanamide]",
    "Value Unit": "kg/m3",
    "Reported": 887
  },
  {
    "Compound": "NCCN",
    "Value Unit": "kg/m3",
    "Reported": 842
  },
  {
    "Compound": "CN(C)C=O [dimethylformamide]",
    "Value Unit": "kg/m3",
    "Reported": 893
  },
  {
    "Compound": "CNC=O [N-methylformamide]",
    "Value Unit": "kg/m3",
    "Reported": 953
  }
]

====

details: 298.15 K; 101.33 kPa; Liquid; Vibrating tube method
mass density values for the compounds below.

[
  {
    "Compound": "NCCN [ethane-1,2-diamine]",
    "mass density (kg/m3)": 895.323
  },
  {
    "Compound": "CNC=O [N-methylformamide]",
    "mass density (kg/m3)": 999.361
  },
  {
    "Compound": "CC(=O)N(C)C [N,N-dimethylethanamide]",
    "mass density (kg/m3)": 936.729
  },
  {
    "Compound": "CN(C)C=O [dimethylformamide]",
    "mass density (kg/m3)": 943.978
  }
]

====

assay: refractive index (Na D-line) (dimensionless); conditions: 298.15 K; 101.33 kPa; Liquid; Standard Abbe refractometry
refractive index values for the compounds below.

[
  {
    "Compound": "CC(=O)N(C)C [N,N-dimethylethanamide]",
    "refractive index": 1.43615
  },
  {
    "Compound": "CN(C)C=O [dimethylformamide]",
    "refractive index": 1.42844
  },
  {
    "Compound": "NCCN [ethane-1,2-diamine]",
    "refractive index": 1.45453
  },
  {
    "Compound": "CNC=O [N-methylformamide]",
    "refractive index": 1.43063
  }
]

====

conditions: 363.15 K; 10100 kPa; Liquid; Vibrating tube method

[
  {
    "Molecule": "NCCN [ethane-1,2-diamine]",
    "Value Unit": "kg/m3",
    "mass density": 838
  },
  {
    "Molecule": "CC(=O)N(C)C [N,N-dimethylethanamide]",
    "Value Unit": "kg/m3",
    "mass density": 884
  },
  {
    "Molecule": "CN(C)C=O [dimethylformamide]",
    "Value Unit": "kg/m3",
    "mass density": 890
  },
  {
    "Molecule": "CNC=O [N-methylformamide]",
    "Value Unit": "kg/m3",
    "mass density": 950
  }
]
